assayed target: UniProt P05177
Sequence (P05177 1-516): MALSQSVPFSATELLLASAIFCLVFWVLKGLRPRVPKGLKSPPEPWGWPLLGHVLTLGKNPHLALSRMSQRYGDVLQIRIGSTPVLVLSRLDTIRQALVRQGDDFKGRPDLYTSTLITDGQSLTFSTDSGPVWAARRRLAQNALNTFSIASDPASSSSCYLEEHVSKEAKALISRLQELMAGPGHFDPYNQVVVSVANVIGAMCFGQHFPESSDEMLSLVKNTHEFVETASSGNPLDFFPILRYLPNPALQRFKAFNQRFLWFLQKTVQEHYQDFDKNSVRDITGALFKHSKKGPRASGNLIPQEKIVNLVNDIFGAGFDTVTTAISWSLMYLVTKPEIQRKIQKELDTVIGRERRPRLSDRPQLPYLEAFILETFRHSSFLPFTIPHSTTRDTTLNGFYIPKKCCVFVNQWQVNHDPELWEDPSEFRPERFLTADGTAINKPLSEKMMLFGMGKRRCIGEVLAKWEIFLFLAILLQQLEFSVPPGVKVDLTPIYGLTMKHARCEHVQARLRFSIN
test method notes: CYP inhibition cocktail assay in pHLM, CYP1A2 (phenacetin)
experimental parameters: human, pooled human liver microsomes (pHLM), pH 7.4, probe phenacetin (12 µM)

compound	uom	inhibition at 15 min, 20 µM
CC1NCCOC1c1ccc2c(c1)OCO2 (stereo not shown)	%	39

The measured values listed here are drawn from paper PMC11968506.
